The reported measurements were obtained from the nanobody polyreactivity screen of Harvey et al. (2022).

Protocol text: yeast display, Sf9 membrane polyspecificity reagent, FACS + sequencing; frameworks hold sequencing errors
Quantity name: polyreactivity (PSR sort gate)

Use these answered entries as a reference point.
Seq text | polyreactivity (PSR sort gate)
QVQLVESGGGLVQAGGSLRLSCAASGSIFQWYAMGWYRQAPGKERELVAAITISGTRTYYADSVKGRFTISRDNAKNTVYLQMNSLKPEDTAVYYCAARYTPRRYYYWGQGTQVTVSS | high polyreactivity
QVQLVESGGGLVQAGGSLRLSCAASGYTFYFYAMGWYRQAPGKERELVASITWRGGSTYYADSVKGRFTISRDNAKNTVYLQMNSLKPEDTAVYYCAKQVYYIYDYWGQGTQVTVSS | low polyreactivity
QVQRVESGGGLVQAGGSLRLSCAASGRTFYPYLMGWYRQSPGKERELVARIRWSGSSTYYADSVKGRFTISRDNAKNTVYFQMNSLKPEDTAVYYCNARPSWYVFGSSVHSGMGYWGQGTQVTVSS | high polyreactivity
QVQLVESGGGLVQAGGSLRLTCAASGRTFGHYAMGWYRQAPGKERELVAAISQRGGGTYYADSVKGRFTISRDNAKNTVYLQMNSLKPEDTAVYYCAADFGNSPYIKDYYYWGQGTQVTVSS | low polyreactivity

We next turn to a different sequence, shown below.
**Q:** May I ask what polyreactivity (PSR sort gate) has been recorded for `QVQLVESGGGLVQAGGSLRLSCAASGSTFTLNAMVWYRQAPGKERELVADISWSSGRTYYADSVKGRFTISRDNAKNTVYLQMNSLKPEVSAVYYCATYDFWKVKFYAYYPEFDYWGQGTQVTVSS` ?
**A:** low polyreactivity
